# System Name: CB1 (CNR1) (Homo sapiens, UniProt P21554)
# Sequence (P21554 whole entry): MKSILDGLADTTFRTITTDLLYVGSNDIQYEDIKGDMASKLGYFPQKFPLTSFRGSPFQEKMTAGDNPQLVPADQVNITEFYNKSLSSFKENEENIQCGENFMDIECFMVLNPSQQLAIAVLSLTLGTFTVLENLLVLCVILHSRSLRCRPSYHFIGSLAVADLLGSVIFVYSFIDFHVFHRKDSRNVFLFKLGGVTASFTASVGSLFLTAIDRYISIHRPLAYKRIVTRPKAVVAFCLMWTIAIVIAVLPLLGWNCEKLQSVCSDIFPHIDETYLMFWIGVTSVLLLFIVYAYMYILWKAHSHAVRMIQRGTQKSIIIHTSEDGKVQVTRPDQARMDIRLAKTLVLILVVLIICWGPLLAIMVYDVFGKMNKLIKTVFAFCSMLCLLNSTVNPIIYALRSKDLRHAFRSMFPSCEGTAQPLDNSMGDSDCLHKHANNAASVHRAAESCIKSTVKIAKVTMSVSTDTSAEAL
# Assay Remarks: cAMP CNR1 Hunter cell line antagonist assay (CB1 assay)
# Conditions Used: antagonist mode, cAMP CNR1 Hunter cells, EC80 agonist; read-out: CB1 assay, Efficacy (IC50)
Quantity Kind: IC50

Name the reported IC50 value associated with the molecule CCc1ccc(NS(=O)(=O)c2cc3c(cc2Cl)NC(=O)C(CC)O3)cc1 (centres unmarked)
1000 to 25000 nM

Quick one: O=C1COc2c(cc(Br)cc2S(=O)(=O)Nc2ccc(F)cc2F)N1
< 1000 nM

Quick one: CCC1Oc2cc(S(=O)(=O)NC3CCCCC3)c(Br)cc2NC1=O (centres unmarked)
1000 to 25000 nM

Next:
Name the reported IC50 value associated with the molecule COc1ccc(NS(=O)(=O)c2cc(Br)cc3c2OCC(=O)N3)cc1Cl
1000 to 25000 nM

Quick one: CCc1cccc(NS(=O)(=O)c2cc3c(cc2Br)NC(=O)CO3)c1
< 1000 nM

###

# System Name: CB1 (CNR1) (Homo sapiens)
# Assay Remarks: cAMP CNR1 Hunter cell line antagonist assay (CB1 assay)
# Conditions Used: antagonist mode, cAMP CNR1 Hunter cells, EC80 agonist; read-out: CB1 assay, Efficacy (IC50)
# Description: cAMP CNR1 Hunter cell line (Eurofins DiscoveryX) were expanded from freezer stocks and seeded in a total volume of 20 μL into white walled, 384-well microplates and incubated at 37° C. for the appropriate time prior to testing. […] Microplates were read following signal generation with a PerkinElmer Envision™ instrument for chemiluminescent signal detection. Compound activity (IC50) was analyzed using CBIS data analysis suite (ChemInnovation, CA).
Quantity Kind: IC50

Some compounds with known IC50 results, for comparison:
Name the reported IC50 value associated with the compound CCC1Oc2cc(S(=O)(=O)Nc3ccc(F)cc3Cl)c(Cl)cc2NC1=O (stereo not drawn) [BC19755]
1 to 25 µM

Quick one: CCC1Oc2cc(S(=O)(=O)Nc3ccc(OC)cc3)c(Cl)cc2NC1=O (stereo not drawn) [BC19211]
1 to 25 µM

Quick one: COc1ccc(NS(=O)(=O)c2cc(S(C)(=O)=O)cc3c2OCC(=O)N3)cc1Cl [BC19429]
≥ 25 µM

Quick one: CC(=O)N1c2cc(S(=O)(=O)N3CCCC3)ccc2NC(=O)C1C (stereo not drawn) [BC19182]
< 1 µM

Quick one: CCC1Oc2c(cc(Br)cc2S(=O)(=O)Nc2ccc(F)cc2F)N(C)C1=O (stereo not drawn) [BC19913]
1 to 25 µM

Quick one: CC1Oc2cc(S(=O)(=O)Nc3cccc(F)c3)c(Cl)cc2NC1=O (stereo not drawn) [BC19713]
1 to 25 µM

Next:
Name the reported IC50 value associated with the compound O=C1CCOc2cc(S(=O)(=O)Nc3ccc(Cl)cc3)c(Br)cc2N1 [BC19656]
≥ 25 µM

Quick one: CC1Oc2cc(S(=O)(=O)NC3CCC(C(C)(C)C)CC3)c(Br)cc2NC1=O (stereo not drawn) [BC19361]
1 to 25 µM

Quick one: Cc1ccc(NS(=O)(=O)c2cc3c(cc2Br)NC(=O)CCO3)cc1Cl [BC19659]
≥ 25 µM

###

Catalogue of IC50 values
# System Name: CB1 (CNR1) (Homo sapiens, UniProt P21554)
# Assay Remarks: cAMP CNR1 Hunter cell line antagonist assay (CB1 assay)
# Conditions Used: antagonist mode, cAMP CNR1 Hunter cells, EC80 agonist; read-out: CB1 assay, Efficacy (IC50)

Notebook: pull reported IC50 for CB1 (CNR1) (Homo sapiens, UniProt P21554), entry CCc1ccc(NS(=O)(=O)c2cc3c(cc2Br)NC(=O)CO3)cc1
< 1 µM

Quick one: CC(C)NS(=O)(=O)c1cc2c(cc1Cl)NC(=O)C(C)O2 (stereo not drawn)
≥ 25 µM

Next:
Notebook: pull reported IC50 for CB1 (CNR1) (Homo sapiens, UniProt P21554), entry Cc1ccc(NS(=O)(=O)c2cc3c(cc2Cl)NC(=O)CO3)cc1Cl
1 to 25 µM

Quick one: CC(C)CC1Oc2c(cc(Br)cc2S(=O)(=O)Nc2ccc(F)cc2Cl)NC1=O (stereo not drawn)
≥ 25 µM
